I'd appreciate it if you could supply normalized growth values for the items below.
# assay-name: chemical genetic growth profiling, strain panel (AID 1159580);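 also: tested at 20 µM; growth read once vehicle control cultures reached saturation at 30 °C; 1 = growth at the plate median or of vehicle wells; lower values mean less growth of the strain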
# details: S. cerevisiae deletion strains, growth OD, locus YNL248C, strain rpa49, hits give low values
Out of some 5,500 compounds screened, about 2,000 (36%) were called active. Roughly 18% stayed inconclusive and do not appear here. This is one part of the list.

Example compounds with recorded normalized growth:
compound: NCCNCCNCCN
normalized growth: 0.975 (inactive)
//
compound: COc1cc(O)cc(OC)c1OC
normalized growth: 1 (inactive)
//
compound: COc1c2c(cc3c1OCO3)C13C=C[C@H](OC)CC1N(C2)CC3O (some centres undefined)
normalized growth: 0.938 (inactive)

Hi, could you look up normalized growth for each item in my list?
1. CC(=O)OCC(=O)[C@@]1(O)CCC2C3CCC4=CC(=O)CC[C@]4(C)C3[C@@H](O)C[C@@]21C (some centres undefined)
2. COc1ccc2c(c1)[C@]13CCCC[C@H]1[C@H](C2)N(C)CC3
3. C[C@]12CCC(=O)C=C1CCC1C2[C@@H](O)C[C@@]2(C)C1CC[C@]2(O)C(=O)COC(=O)CCC(=O)O (some centres undefined)
4. CO[C@H]1C[C@H](O[C@H]2[C@H](C)[C@@H](OC3O[C@H](C)C[C@H](N(C)C)[C@H]3OC(C)=O)[C@@H](C)C[C@]3(CO3)C(=O)[C@H](C)[C@@H](OC(C)=O)[C@@H](C)[C@@H](C)OC(=O)[C@@H]2C)O[C@@H](C)[C@@H]1OC(C)=O (some centres undefined)
5. C=C(C)[C@@H]1CC[C@]2(CO)CC[C@]3(C)[C@H](CCC4[C@@]5(C)CC[C@H](O)C(C)(C)C5CC[C@]43C)C12 (some centres undefined)

["1.03 (inactive)", "0.987 (inactive)", "1.04 (inactive)", "1.01 (inactive)", "1 (inactive)"]

Name the recorded normalized growth for COc1cc(/C=C/C(=O)N2CCC=CC2=O)cc(OC)c1OC .
0.972 (inactive)

====

# assay-name: chemical genetic growth profiling, strain panel (AID 1159580)
# details: S. cerevisiae deletion strains, growth OD, locus YLR370C, strain arc18, hits give low values
Hit rate of the full screen: of about 5,500 compounds, about 2,000 (36%) were called active. About 18% were inconclusive and are not listed. Some of the results follow.
Decide using normalized growth alone. Strictly below 1: Satisfied. Equal to or above 1: Not satisfied.

compound: CN1CCN(CC(=O)N2c3ccccc3C(=O)Nc3cccnc32)CC1
class-label: Not satisfied

Please find the next compound below.
Given OCCN1CCN(CCCN2c3ccccc3Sc3ccc(C(F)(F)F)cc32)CC1 , is recorded normalized growth strictly lower than 1?
Satisfied

====

# assay-name: chemical genetic growth profiling, strain panel (AID 1159580)
# details: S. cerevisiae deletion strains, growth OD, locus YMR231W, strain pep5, hits give low values
Out of some 5,500 compounds screened, about 2,000 (36%) were called active. Not shown: some 18% with an inconclusive outcome. Some of the results follow.
I'd appreciate it if you could supply normalized growth values for the items below.
Give bare numbers.

smiles-data: CCOc1ccc(C(=O)c2ccc(O)c(O)c2O)cc1
quantity: normalized growth
reported-measurement: 0.9

Hi, could you look up normalized growth for each item in my list?
1. COc1ccc(C(=O)c2ccccc2)c(O)c1O
2. CCOc1ccc(C(=O)c2cc(O)c(OC)c(OC)c2O)cc1
3. NC(=O)NO
4. COc1ccc(C(=O)c2ccc(O)cc2)c(O)c1O

[0.973, 0.999, 1.03, 0.979]

Hi, could you look up normalized growth for each item in my list?
1. CCOc1ccc(C(=O)c2ccc(OC)c(O)c2O)cc1
2. CC(=O)NO

0.992
0.987

====

# assay-name: chemical genetic growth profiling, strain panel (AID 1159580)
# details: S. cerevisiae deletion strains, growth OD, locus YLL026W
The campaign covered roughly 5,500 compounds. About 2,000 (36%) were called active. Not shown: some 18% with an inconclusive outcome. Rule as the data show it: active = normalized growth mostly below about 0.91 (no sharp cut-off); inconclusive = no clear call, values can overlap the other calls; inactive = mostly above about 0.92. This is one part of the list.
The reply should name one outcome from 1 (yes) (active), 0 (no) (inactive)

compound: O=c1c(O)c(-c2ccc(O)c(O)c2)oc2cc(O)ccc12
class-label: 0 (no)

compound: CCOc1ccc(C(=O)c2ccc(O)c(O)c2O)cc1
class-label: 0 (no)

compound: CC(=O)NS(=O)(=O)c1ccc(NC(=O)c2ccccc2C(=O)O)cc1
class-label: 0 (no)

How did this test come out for COc1cc(-c2oc3cc(O)ccc3c(=O)c2O)ccc1O ?
0 (no)

How did this test come out for COc1ccc(C(=O)c2ccc(O)cc2)c(O)c1O ?
0 (no)

How did this test come out for COc1ccc(-c2oc3ccccc3c(=O)c2O)cc1OC ?
1 (yes)

====

# assay-name: chemical genetic growth profiling, strain panel (AID 1159580);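 also: tested at 20 µM; growth read once vehicle control cultures reached saturation at 30 °C; 1 = growth at the plate median or of vehicle wells; lower values mean less growth of the strain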
# details: S. cerevisiae strains, growth OD, strain wild type, hits give low values
The campaign covered roughly 5,500 compounds. About 2,000 (36%) were called active. About 18% were inconclusive and are not listed. The list shows a part of the results.
Decide using normalized growth alone. Strictly below 1: class 1. Equal to or above 1: class 0.

Given Cc1nn(-c2ccccc2)nc1C(=O)NNC(=S)Nc1ccc(Cl)cc1 , is recorded normalized growth strictly lower than 1?
class 1

Given O=c1cc(C(F)(F)F)[nH]c2cc(Cl)cc(Cl)c12 , is recorded normalized growth strictly lower than 1?
class 1

Given O=C(O)[C@H](O)[C@@](O)(Cc1ccc(O)cc1)C(=O)O , is recorded normalized growth strictly lower than 1?
class 0

Given COc1ccc(C(=O)c2ccc(O)cc2)c(O)c1O , is recorded normalized growth strictly lower than 1?
class 0

Given O=c1c(O)c(-c2ccc(O)c(O)c2)oc2cc(O)ccc12 , is recorded normalized growth strictly lower than 1?
class 1

Given O/N=C\c1sccc1Oc1ccccc1 , is recorded normalized growth strictly lower than 1?
class 1

====

# assay-name: chemical genetic growth profiling, strain panel (AID 1159580);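 also: tested at 20 µM; growth read once vehicle control cultures reached saturation at 30 °C; 1 = growth at the plate median or of vehicle wells; lower values mean less growth of the strain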
# details: S. cerevisiae deletion strains, growth OD, locus YEL037C, strain rad23, hits give low values
Hit rate of the full screen: of about 5,500 compounds, about 2,000 (36%) were called active. Inconclusive results (about 18%) are left out. The list shows a part of the results.
quantity: normalized growth
Answers are plain numbers.

Example molecules with recorded normalized growth:
smiles-data: COc1cc(-c2oc3cc(O)ccc3c(=O)c2O)ccc1O
normalized growth: 0.972
--
smiles-data: CCOc1ccc(C(=O)c2cc(O)c(OC)c(OC)c2O)cc1
normalized growth: 0.99
--
smiles-data: Cc1onc(-c2c(Cl)cccc2Cl)c1C(=O)N[C@@H]1C(=O)N2[C@@H]1SC(C)(C)[C@@H]2C(=O)O
normalized growth: 0.995
--
smiles-data: COc1ccc([C@H]2COc3c(ccc(O)c3OC)C2)c(OC)c1O
normalized growth: 0.992
--
smiles-data: COc1ccc(-c2oc3ccccc3c(=O)c2O)cc1OC
normalized growth: 0.692

Pending molecule:
Name the recorded normalized growth for COc1ccc(C(=O)c2ccc(O)cc2)c(O)c1O .
0.965

====

# assay-name: chemical genetic growth profiling, strain panel (AID 1159580);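 also: tested at 20 µM; growth read once vehicle control cultures reached saturation at 30 °C; 1 = growth at the plate median or of vehicle wells; lower values mean less growth of the strain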
# details: S. cerevisiae deletion strains, growth OD, locus YLR370C, strain arc18, hits give low values
Out of some 5,500 compounds screened, about 2,000 (36%) were called active. Inconclusive results (about 18%) are left out. The list shows a part of the results.
quantity: normalized growth
Numbers only.

compound: NC(=O)NO
quantity: normalized growth
reported-measurement: 1.03
//
compound: CC(=O)OC[C@H]1O[C@@H](Oc2cc(OC(C)=O)c3c(=O)cc(-c4ccc(OC(C)=O)cc4)oc3c2)[C@H](OC(C)=O)[C@@H](OC(C)=O)[C@@H]1OC(C)=O
quantity: normalized growth
reported-measurement: 0.981
//
compound: CCC1(CC)C(=O)C=CNC1=O
quantity: normalized growth
reported-measurement: 0.997
//
compound: CC(=O)OCC(=O)[C@@]12OC3(CCCC3)O[C@@H]1CC1C3CCC4=CC(=O)C=C[C@]4(C)[C@@]3(F)[C@@H](O)C[C@@]12C (stereo partly specified)
quantity: normalized growth
reported-measurement: 1.02
//
compound: CC(=O)[O][Hg][c]1ccccc1
quantity: normalized growth
reported-measurement: 0.0626

Hi, could you look up normalized growth for each item in my list?
1. COc1ccc([C@H]2COc3c(ccc(O)c3OC)C2)c(OC)c1O
2. CC(=O)OCC1=C(C(=O)O)N2C(=O)[C@@H](NC(=O)CCCC(N)C(=O)O)C2SC1 (stereo partly specified)
3. COc1cc(/C=C/C(=O)N2CCC=CC2=O)cc(OC)c1OC
4. O=C(O)c1cc(=O)c2cccc(O)c2[nH]1

0.977
1.01
0.986
1.04

Hi, could you look up normalized growth for each item in my list?
1. CNS(=O)(=O)Cc1ccc2[nH]cc(CCN(C)C)c2c1
2. CC(=O)Oc1ccccc1C(=O)O

1: 1.01; 2: 1
